test system: MCF7; assay: NCI tumour cell line growth inhibition, 48 h
Activity calls are given as the source filed them. Cut-off read from the data, not from the text of the source: active = GI50 up to about 1.1 µM and inactive = higher.
Reply using exactly one outcome from True = active, False = inactive

Previously resolved entries follow.
- Molecule: "O=C1C=Cc2c(Cl)sc(Cl)c21"
  Assigned category: "True"
- Molecule: "COc1cc(/C=C2\\C[C@H]3[C@@H]4CC=C5C=C(N6CCCC6)CC[C@]5(C)[C@H]4CC[C@]3(C)C2=O)cc(OC)c1OC"
  Assigned category: "False"
- Molecule: "C=C1C(=O)CCC1C(=O)O (stereo unspecified)"
  Assigned category: "False"
- Molecule: "COc1ccc(/[N+]([O-])=C/c2ccccc2OC(=S)S)cc1"
  Assigned category: "False"
- Molecule: "CNC(=O)c1nn[nH]c1O"
  Assigned category: "False"

Recorded call for "O=[N+]([O-])c1ccc2[nH]c(=S)[nH]c(=S)c2c1" ?
False

Recorded call for O=C(CCCCCC(=O)N1CC(CCl)c2ccc([N+](=O)[O-])cc21)N1CC(CCl)c2ccc([N+](=O)[O-])cc21 (stereo unspecified) ?
False

Recorded call for "O=C1NC(Nc2ccccc2)=N/C1=C\c1c(Cl)cccc1Cl" ?
False

Recorded call for "C=C(C)[C@H]1CC[C@@]23O[C@@H]2[C@@H](C[C@@]2(C)CC(=O)[C@H](CC(=O)C1)O2)OC(=O)[C@@]12CC[C@H](C(=C)C)CC(=O)C[C@H]4O[C@](C)(CC4=O)C[C@@H](OC3=O)[C@@H]1O2" ?
False

Recorded call for C=C1CCC2C(C)(CO)C(O)CCC2(C)C1C/C=C1\C(=O)OCC1O (stereo unspecified) ?
False

Recorded call for "Nc1ccc(-c2nc3ccccc3s2)cc1C#Cc1ccccc1" ?
False

* * *

Provide the reported GI50 of each item.
system: NCI-H460; test: NCI tumour cell line growth inhibition, 48 h
Activity calls are given as the source filed them. Rule as the data show it: active = GI50 up to about 1.1 µM and inactive = higher.

- Compound: "COc1c(O)cc2c(c1O)C(=O)C(Cc1ccc(O)cc1)CO2 (stereo not given)"
  Target system: "NCI-H460"
  Measured value: "44.6 µM (inactive)"

State recorded GI50 for all listed compounds.
1. CC1=C(C(=O)OCCc2ccc([N+](=O)[O-])cc2)C(c2ccccc2[N+](=O)[O-])C(C(=O)OC(C)C)=C(C)N1 (stereo not given)
2. CCOC(=O)C1=COC(C)(CCc2ccccc2)CC1=O (stereo not given)
3. CC(=O)NNc1nc(C)c(C(=O)/C=C/c2ccccc2Cl)s1
4. CC1CCC2C(C(=O)O[C@H]3C4C=CO[C@@H](OC5OC(CO)C(O)C(O)C5O)C4[C@@]4(CO)O[C@@H]34)=CO[C@@H](OC3OC(CO)C(O)C(O)C3O)C12 (stereo not given in full)
5. COc1cccc(/C=C/c2ccnc3ccccc23)c1OC

2.6 µM (inactive)
92.5 µM (inactive)
> 100 µM (inactive)
> 10 µM (inactive)
> 10 µM (inactive)

State recorded GI50 for all listed compounds.
1. COc1cc2c(cc1OC)C(=O)/C(=C/c1ccc([N+](=O)[O-])cc1)CC2
2. O=C1CSC(c2ccccc2[N+](=O)[O-])N1c1ccc(-n2c(-c3ccccc3)nc3ccccc3c2=O)cc1 (stereo not given)
3. N#CC1=CNc2sccc2S1(=O)=O

1. > 10 µM (inactive)
2. 31.5 µM (inactive)
3. 40.7 µM (inactive)

Kindly indicate its recorded GI50. Item: "CCC[C@H]1O[C@@H]2CC(=O)O[C@@H]2C2=C1C(=O)C=CC2=O"
> 100 µM (inactive)

* * *

tested on: SF-268; experiment: NCI tumour cell line growth inhibition, 48 h
Calls of active or inactive are those of the source. Cut-off read from the data, not from the text of the source: active = GI50 up to about 1.1 µM and inactive = higher.
Measured quantity: GI50

- Smiles entry: "Clc1ccccc1/C=C/c1cscn1"
  Measured quantity: "GI50"
  Measured value: "> 100 µM (inactive)"
- Smiles entry: "c1ccc2c(c1)CCc1c(-c3ccncc3)n[nH]c1-2"
  Measured quantity: "GI50"
  Measured value: "28.8 µM (inactive)"

Kindly indicate its recorded GI50. Item: "C=CCCCN(C(=O)c1ccccc1)c1ccc(C(=O)OC)o1"
> 100 µM (inactive)

* * *

tested on: HOP-62; experiment: NCI tumour cell line growth inhibition, 48 h
Activity calls are given as the source filed them. Cut-off read from the data, not from the text of the source: active = GI50 up to about 1.1 µM and inactive = higher.
Provide the reported GI50 of each item.

Completed entries (count: 4):
- Compound: "COc1ccc2c(c1)CC1=C(O2)c2ccc(OC)cc2OC1"
  GI50: "41.9 µM (inactive)"
- Compound: "Nc1nnc2ccc(Cl)cc2[n+]1[O-]"
  GI50: "> 100 µM (inactive)"
- Compound: "NC(=O)c1nnsc1NN=O"
  GI50: "> 100 µM (inactive)"
- Compound: "Clc1nc2c(N3CCCC3)nc(N3CCNCC3)nc2[nH]1"
  GI50: "20 µM (inactive)"

Kindly indicate its recorded GI50. Item: COc1ccc(C2=NN(c3ccccc3)C(c3cc4cc(Br)ccc4nc3Cl)C2)cc1 (stereo not given)
18.8 µM (inactive)

* * *

tested on: CCRF-CEM; assay: NCI tumour cell line growth inhibition, 48 h
Calls of active or inactive are those of the source. Rule as the data show it: active = GI50 up to about 1.1 µM and inactive = higher.
Measured quantity: GI50

Completed entries (count: 5):
- Compound: "CCCCCCCCCCCCc1ccsc1-c1ccc(-c2ccc(-c3sccc3CCCCCCCCCCCC)s2)s1"
  GI50: "> 100 µM (inactive)"
- Compound: "N#Cc1nc(/C=C/c2nc(C#N)c(N)o2)oc1N"
  GI50: "> 10 µM (inactive)"
- Compound: "CCOC(=S)SCC(=O)O"
  GI50: "1 µM (active)"
- Compound: "CC1CCC23COC(=O)C2C(O)CCC3C1(C)CC(O)c1ccoc1 (configuration not stated)"
  GI50: "> 100 µM (inactive)"
- Compound: "CCN(CC)CCNc1ccc2nc(C)n3c4ccc(OC)cc4c(=O)c1c23"
  GI50: "0.126 µM (active)"

State recorded GI50 for all listed compounds.
1. O=c1oc2ccc([N+](=O)[O-])cc2c(Nc2ccc3c(c2)Sc2ccccc2O3)c1[N+](=O)[O-]
2. O=C(N/N=C\c1ccc([N+](=O)[O-])cc1)c1ccccc1Nc1ccccc1C(=O)N/N=C/c1ccc([N+](=O)[O-])cc1
3. O=C(O)c1cc(/C=C/c2cc(O)ccc2O)ccc1O
4. O=c1[nH]/c(=C/c2ccc(OCc3ccccc3)cn2)c(=O)[nH]/c1=C/c1ccc(F)cc1
5. O=C1CC(=O)NC(NN2C(=O)CSC2c2ccc(Cl)cc2)=N1 (configuration not stated)

18.9 µM (inactive)
85.7 µM (inactive)
> 10 µM (inactive)
0.458 µM (active)
25.7 µM (inactive)

State recorded GI50 for all listed compounds.
1. CC(C)C(CC(=O)OCC(CO)OC(=O)CC(C(C)C)C(C)C)C(C)C (configuration not stated)
2. O=C1NC(Nc2ccccc2)=N/C1=C\c1c(Cl)cccc1Cl
3. COC(=O)n1c(C)c(C=O)c2ccc(OC)cc21
4. O=C(N(C1=CCCC1)N(c1ccccc1)c1ccccc1)C(F)(F)F

5.53 µM (inactive)
14.3 µM (inactive)
32.4 µM (inactive)
23.4 µM (inactive)

State recorded GI50 for all listed compounds.
1. Cc1ccccc1Nc1nc2ccccc2nc1NS(=O)(=O)c1ccccc1
2. Cc1cccc2c(NCCN(C)C)c3cccc(C(=O)NCCN(C)C)c3nc12
3. COc1ccc(-c2c3ccccc3c(-c3ccc(OCCBr)cc3)c3ccccc23)cc1

> 100 µM (inactive)
0.156 µM (active)
> 100 µM (inactive)

* * *

Provide the reported GI50 of each item.
tested on: SNB-78; test: NCI tumour cell line growth inhibition, 48 h
Activity calls are given as the source filed them. No stated cut-off is given here; in the data, active = GI50 up to about 1.1 µM and inactive = higher.

- Compound: "C/C(=N\\NC(=N)N)C(CN(CC(C)C)CC(C)C)C(=O)Nc1ccc(C)cc1C (stereo not drawn)"
  Measured quantity: "GI50"
  Measured value: "> 100 µM (inactive)"
- Compound: "O=C(CC(=O)c1ccccc1)C(=O)Nc1ccc(Cl)cc1"
  Measured quantity: "GI50"
  Measured value: "> 100 µM (inactive)"
- Compound: "c1ccc2c(c1)CCc1c(-c3ccncc3)n[nH]c1-2"
  Measured quantity: "GI50"
  Measured value: "29.6 µM (inactive)"
- Compound: "CCCCCCCCCCCCOC(=N)N1CCOCC1"
  Measured quantity: "GI50"
  Measured value: "6.59 µM (inactive)"
- Compound: "O=c1c2ccccc2nc(-c2ccccc2)n1NC1OC(CO)C(O)C(O)C1O (stereo not drawn)"
  Measured quantity: "GI50"
  Measured value: "> 100 µM (inactive)"
- Compound: "CCCCC1CC(c2ccc(Cl)cc2)=NO1 (stereo not drawn)"
  Measured quantity: "GI50"
  Measured value: "> 100 µM (inactive)"
- Compound: "Cc1ccc2nc3c(C)cc(=O)cc-3sc2c1"
  Measured quantity: "GI50"
  Measured value: "32.5 µM (inactive)"
- Compound: "COc1cc(C2c3cc4c(cc3[C@@H](Nc3ccc([N+](=O)[O-])cc3)C3COC(=O)[C@H]23)OCO4)cc(OC)c1O (stereo partly drawn)"
  Measured quantity: "GI50"
  Measured value: "5.68 µM (inactive)"
- Compound: "CSc1ccc(/C=C2/C[N+](C)(C)C/C(=C/c3ccc(SC)cc3)C2=O)cc1"
  Measured quantity: "GI50"
  Measured value: "62.2 µM (inactive)"
- Compound: "NC(CCCCN/C=C1/N=C(c2ccccc2)OC1=O)C(=O)O (stereo not drawn)"
  Measured quantity: "GI50"
  Measured value: "> 100 µM (inactive)"

State recorded GI50 for all listed compounds.
1. COc1ccccc1NC(=O)C1=C(C)NC(C)=C(C(=O)Nc2ccccc2OC)C1/C=C/c1ccccc1
2. O=C1c2ccccc2C(=O)c2c(NCCCNCCO)ccc(NCCCNCCO)c21
3. COc1cc(OC(=O)c2c(O)cc(O)c(O)c2C)cc(C)c1C(=O)Oc1cc(C)c(C(=O)O)c(O)c1

["54.8 µM (inactive)", "8.32 µM (inactive)", "> 100 µM (inactive)"]
